The reported measurements were obtained from paper PMC3189207.

- target_or_system: Scrib PDZ-1 domain (Homo sapiens, UniProt Q14160)
- Construct: ROC curves of DomPep prediction for the three Scrib PDZ-1/2/3 domains
- Sequence (Q14160 728-815 limits assumed): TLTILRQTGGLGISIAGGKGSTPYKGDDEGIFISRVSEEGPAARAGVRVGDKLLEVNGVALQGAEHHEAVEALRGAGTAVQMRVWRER
- test_details: In-solution fluorescence polarization binding of peptides to Scrib PDZ1
- particulars: Kd value of 100 µM applied as binding cutoff, NB without definition, read-out: Kd (µM) PDZ1
Residues, ends and D or L forms follow the SMILES beside them.
result_type: Kd

CSCC[C@H](NC(=O)CNC(=O)[C@H](CC(N)=O)NC(=O)[C@@H](NC(=O)[C@H](CC(C)C)NC(=O)[C@H](CCC(N)=O)NC(=O)[C@@H](N)C(C)C)C(C)C)C(=O)N[C@H](C(=O)N1CCC[C@H]1C(=O)N[C@@H](CC(C)C)C(=O)O)C(C)C [EPHA5] (H-VQLVNGMVPL-OH); > 100 µM
CC(C)C[C@H](NC(=O)[C@H](CC(C)C)NC(=O)[C@@H](NC(=O)CNC(=O)[C@H](Cc1ccc(O)cc1)NC(=O)[C@H](CC(C)C)NC(=O)[C@H](CCC(N)=O)NC(=O)[C@H](C)NC(=O)[C@@H](N)CCCCN)[C@@H](C)O)C(=O)N[C@@H](CC(N)=O)C(=O)O [BEGAIN] (H-KAQLYGTLLN-OH; N-terminus and C-terminus assumed); > 100 µM

Proceed to the following item.
What value of Kd has been recorded for this entry: CC(C)[C@H](NC(=O)[C@H](CCCNC(=N)N)NC(=O)[C@@H](N)CC(=O)O)C(=O)N[C@@H](C)C(=O)N[C@@H](CCC(=O)O)C(=O)N[C@@H](CCC(N)=O)C(=O)N[C@@H](CC(=O)O)C(=O)N[C@H](C(=O)N[C@@H](CCC(N)=O)C(=O)N[C@@H](C)C(=O)O)[C@@H](C)O [MPG] (H-DRVAEQDTQA-OH)
> 100 µM

* * *

- target_or_system: Scrib PDZ-2 domain (Homo sapiens, UniProt Q14160)
- Construct: ROC curves of DomPep prediction for the three Scrib PDZ-1/2/3 domains
- Sequence (Q14160 862-950 limits assumed): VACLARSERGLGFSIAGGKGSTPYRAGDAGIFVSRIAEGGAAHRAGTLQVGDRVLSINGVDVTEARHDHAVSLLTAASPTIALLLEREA
- test_details: In-solution fluorescence polarization binding of peptides to Scrib PDZ2
- particulars: Kd value of 100 µM applied as binding cutoff, NB without definition, read-out: Kd (µM) PDZ2
Residues, ends and D or L forms follow the SMILES beside them.
result_type: Kd (µM)
Answer format: numeric, µM implied, no suffix.

CC(C)C[C@H](NC(=O)[C@@H]1CCCN1C(=O)[C@@H](NC(=O)[C@H](CCC(=O)O)NC(=O)[C@H](CCCCN)NC(=O)[C@H](CCCCN)NC(=O)[C@H](Cc1ccc(O)cc1)NC(=O)[C@H](CC(N)=O)NC(=O)[C@H](Cc1ccccc1)NC(=O)[C@@H](N)CO)[C@@H](C)O)C(=O)O [ARD50] (H-SFNYKKETPL-OH); 34.3

Now look at this one.
Quick check: Kd of CSCC[C@H](NC(=O)CN)C(=O)N[C@@H](CCCCN)C(=O)N[C@@H](CCCNC(=N)N)C(=O)N[C@@H](CC(C)C)C(=O)N[C@H](C(=O)N[C@@H](CO)C(=O)N[C@H](C(=O)N[C@@H](CCCNC(=N)N)C(=O)N[C@@H](CC(C)C)C(=O)O)[C@@H](C)O)[C@@H](C)O [RPS6KA2] (H-GMKRLTSTRL-OH) ?
62.7
